SYSTEM UNDER TEST: Melatonin receptor
Format: protein assay, Ovis aries
Mark condition met for Ki under 0.01 µM, condition not met if at or over.

Does "CC(=O)NCCc1cccc2ccc3c(c12)C=CCO3" have Ki strictly under 0.01 µM?
condition met

Follow-up entry: CC(=O)NCCc1cccc2ccc3c(c12)C(O)CO3 (stereo unspecified)
condition not met

Follow-up entry: "CC(=O)NCCc1cccc2ccc3c(c12)C(=O)CO3"
condition not met

Follow-up entry: CC(=O)NCCC1CCCc2cc3c(cc21)OCCO3 (stereo unspecified)
condition not met

Follow-up entry: "CC(=O)NCCc1cccc2ccc3c(c12)CCCO3"
condition met

Follow-up entry: CC(=O)NCCC1CCCc2ccc3c(c21)CCCO3 (stereo unspecified)
condition met
